test system: HeLa (human cervix carcinoma) cells; assay: MTT cytotoxicity assay, HeLa; type: cell-based; settings: 48 h incubation, average (SD) of three experiments, read-out: IC50 HeLa
Parameter: pIC50. Scope: all listed entries.
A value of pIC50 is the negative decimal logarithm of a concentration given in moles per litre.

>>> quantitative_readout("CC(C)(C)NCC(O)CN1C(=O)C2C(C1=O)C1(c3ccccc3)CC2(c2ccccc2)C(c2ccccc2)=C1c1ccccc1 (stereo not shown)")
5.70

Now for another entry.
[Q] Can you look up the measured pIC50 of CCCCN(CCCC)CC(O)CN1C(=O)C2C(C1=O)C1(CC)C(=O)C2(CC)C(c2ccccc2)=C1c1ccccc1 (stereo not shown) for me?
[A] 4.72

---

Parameter: melting point. Scope: all listed entries.
Counter-ions that a name gives are not always drawn.

// worked examples, melting point included
>>> result("CCCCN(CCCC)CC(O)CN1C(=O)C2C(C1=O)C1(c3ccccc3)CC2(c2ccccc2)C(c2ccccc2)=C1c1ccccc1 (centres unmarked) (as salt: HCl)")
"237 to 238 °C"
>>> result("CCCCN(CCCC)CC(O)CN1C(=O)C2C(C1=O)C1(CC)C(=O)C2(CC)C(c2ccccc2)=C1c1ccccc1 (centres unmarked) (as salt: HCl)")
"92 to 110 °C"
>>> result("O=C1C2C(C(=O)N1CC(O)CN1CCCCC1)C1(c3ccccc3)CC2(c2ccccc2)C(c2ccccc2)=C1c1ccccc1 (centres unmarked) (as salt: HCl)")
"268 to 270 °C"
>>> result("O=C1C2C(C(=O)N1CCO)C1(c3ccccc3)CC2(c2ccccc2)C(c2ccccc2)=C1c1ccccc1 (centres unmarked)")
"197 to 198 °C"
>>> result("CC12C(=O)C(C)(C(c3ccccc3)=C1c1ccccc1)C1C(=O)N(CCN3CCOCC3)C(=O)C12 (centres unmarked) (as salt: HCl)")
"227 to 228 °C"

[Q] Can you look up the measured melting point of CC12C(=O)C(C)(C(c3ccccc3)=C1c1ccccc1)C1C(=O)N(CCN3CCCCC3)C(=O)C12 (centres unmarked) (as salt: HCl) for me?
[A] 214 to 216 °C

[Q] Can you look up the measured melting point of CC12C(=O)C(C)(C(c3ccccc3)=C1c1ccccc1)C1C(=O)N(CCO)C(=O)C12 (centres unmarked) for me?
[A] 186 to 187 °C

[Q] Can you look up the measured melting point of CCC12C(=O)C(CC)(C(c3ccccc3)=C1c1ccccc1)C1C(=O)N(CC(O)CN3CCCCC3)C(=O)C12 (centres unmarked) (as salt: HCl) for me?
[A] 190 to 195 °C

---

system: HeLa (human cervix carcinoma) cells; test: MTT cytotoxicity assay, HeLa; assay type: cell-based; conditions: 48 h incubation, average (SD) of three experiments, read-out: IC50 HeLa
pIC50: −log10 of the molar value.
Each entry gets N if its pIC50 stays under 5, and Y if its pIC50 is 5 or above.

>>> class_assignment("CCC12C(=O)C(CC)(C(c3ccccc3)=C1c1ccccc1)C1C(=O)N(CC(O)CN3CCCCC3)C(=O)C12 (stereo not shown)")
"Y"
>>> class_assignment("CCC12C(=O)C(CC)(C(c3ccccc3)=C1c1ccccc1)C1C(=O)N(CC(O)CN3CCOCC3)C(=O)C12 (stereo not shown)")
"N"
>>> class_assignment("CC12C(=O)C(C)(C(c3ccccc3)=C1c1ccccc1)C1C(=O)N(CC(O)CN3CCCCC3)C(=O)C12 (stereo not shown)")
"N"
>>> class_assignment("O=C1C2C(C(=O)N1CC(O)CN1CCOCC1)C1(c3ccccc3)CC2(c2ccccc2)C(c2ccccc2)=C1c1ccccc1 (stereo not shown)")
"N"
>>> class_assignment("CCNCC(O)CN1C(=O)C2C(C1=O)C1(CC)C(=O)C2(CC)C(c2ccccc2)=C1c1ccccc1 (stereo not shown)")
"N"
>>> class_assignment("CN(C)CCN1C(=O)C2C(C1=O)C1(c3ccccc3)CC2(c2ccccc2)C(c2ccccc2)=C1c1ccccc1 (stereo not shown)")
"N"
>>> class_assignment("CCCCN(CCCC)CC(O)CN1C(=O)C2C(C1=O)C1(C)C(=O)C2(C)C(c2ccccc2)=C1c1ccccc1 (stereo not shown)")
"Y"
>>> class_assignment("CC12C(=O)C(C)(C(c3ccccc3)=C1c1ccccc1)C1C(=O)N(CCO)C(=O)C12 (stereo not shown)")
"N"

[Q] Is reported pIC50 greater than or equal to 5 here: CCCCN(CCCC)CC(O)CN1C(=O)C2C(C1=O)C1(c3ccccc3)CC2(c2ccccc2)C(c2ccccc2)=C1c1ccccc1 (stereo not shown)
[A] N

[Q] Is reported pIC50 greater than or equal to 5 here: CCC12C(=O)C(CC)(C(c3ccccc3)=C1c1ccccc1)C1C(=O)N(CCN3CCCCC3)C(=O)C12 (stereo not shown)
[A] N

[Q] Is reported pIC50 greater than or equal to 5 here: CC(C)(C)NCC(O)CN1C(=O)C2C(C1=O)C1(C)C(=O)C2(C)C(c2ccccc2)=C1c1ccccc1 (stereo not shown)
[A] N

[Q] Is reported pIC50 greater than or equal to 5 here: CCNCC(O)CN1C(=O)C2C(C1=O)C1(C)C(=O)C2(C)C(c2ccccc2)=C1c1ccccc1 (stereo not shown)
[A] N
